These data points were gathered from patent US20070280945A1.

# testTarget: T1, recombinant hIL-6R protein, monomeric form (human, UniProt P08887 20-358)
# T1 construct: also called monomeric hIL-6R; Human IL6R
# T1 sequence: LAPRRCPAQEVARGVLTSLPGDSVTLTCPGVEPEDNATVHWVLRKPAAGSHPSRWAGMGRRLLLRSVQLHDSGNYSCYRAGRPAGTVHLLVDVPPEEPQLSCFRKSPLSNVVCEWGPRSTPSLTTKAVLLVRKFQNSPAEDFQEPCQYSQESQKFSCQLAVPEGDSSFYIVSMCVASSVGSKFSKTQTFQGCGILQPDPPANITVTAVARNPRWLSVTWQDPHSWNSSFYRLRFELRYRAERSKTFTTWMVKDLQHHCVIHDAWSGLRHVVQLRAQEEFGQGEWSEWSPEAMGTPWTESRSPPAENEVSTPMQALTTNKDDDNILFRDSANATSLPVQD
# methodNotes: SPR (BIAcore), antibody captured on goat anti-human Fc, monomeric hIL-6R 1.56-12.5 nM
experimentalEndpoint: pKd
Field pKd (float): negative decimal logarithm of the concentration in molar.

Below are worked cases with known answers.
INSERT INTO measurements (binder, measurednumber) VALUES
  ('VV6A9-5 hIgG4 (antibody, V domains shown, Human IgG4 constant region) VH: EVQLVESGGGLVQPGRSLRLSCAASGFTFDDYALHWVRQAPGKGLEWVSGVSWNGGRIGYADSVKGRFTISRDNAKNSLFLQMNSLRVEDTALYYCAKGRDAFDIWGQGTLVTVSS VL: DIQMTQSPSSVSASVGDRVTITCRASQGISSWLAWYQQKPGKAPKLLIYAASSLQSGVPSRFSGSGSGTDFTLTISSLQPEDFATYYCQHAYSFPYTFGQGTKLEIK', 9.87),
  ('VQ1G4-21 hIgG1 (antibody, V domains shown, Human IgG1 constant region) VH: QVQLVQSGAEVKEPGASVKVSCKASGYTFTSYDIIWVRQATGQGLEWMGWMNPNSGNTGYTQNLQGRVTLTRNTSITTVYMELSSLSSEDTAVYYCARDYSSHYYGLDVWGQGTTVTVSS VL: DIQLTQSPSFLSTSIGDRVTITCWASQDISNYLAWYQQKPGKAPKLLIFVASTLQSGVPSRFSGSGSGTEFTLTISSLQPEDFATYYCQQFNSYPLTFGGGTKVEIK', 9.63),
  ('VQ1G4-21 hIgG4 (antibody, V domains shown, Human IgG4 constant region) VH: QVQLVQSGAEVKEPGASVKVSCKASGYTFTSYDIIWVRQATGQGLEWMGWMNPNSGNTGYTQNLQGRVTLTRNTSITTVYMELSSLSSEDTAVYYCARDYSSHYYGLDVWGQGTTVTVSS VL: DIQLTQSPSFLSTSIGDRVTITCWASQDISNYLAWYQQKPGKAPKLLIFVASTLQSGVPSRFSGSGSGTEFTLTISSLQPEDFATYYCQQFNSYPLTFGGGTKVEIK', 9.47);

// next entry
Annotate the binder VV6A9-5 hIgG1 (antibody, V domains shown, Human IgG1 constant region) VH: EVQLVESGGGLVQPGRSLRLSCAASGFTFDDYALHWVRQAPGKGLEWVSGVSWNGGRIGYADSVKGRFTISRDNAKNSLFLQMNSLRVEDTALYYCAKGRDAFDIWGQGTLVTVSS VL: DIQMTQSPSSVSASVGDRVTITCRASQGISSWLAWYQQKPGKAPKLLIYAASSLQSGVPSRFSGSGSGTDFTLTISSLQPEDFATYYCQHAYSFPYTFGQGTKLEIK with its measured pKd.
9.90
